Numbers sourced from patent US11198692B2.

Target: Human M4 receptors (Homo sapiens)
Sequence (P08173 whole entry): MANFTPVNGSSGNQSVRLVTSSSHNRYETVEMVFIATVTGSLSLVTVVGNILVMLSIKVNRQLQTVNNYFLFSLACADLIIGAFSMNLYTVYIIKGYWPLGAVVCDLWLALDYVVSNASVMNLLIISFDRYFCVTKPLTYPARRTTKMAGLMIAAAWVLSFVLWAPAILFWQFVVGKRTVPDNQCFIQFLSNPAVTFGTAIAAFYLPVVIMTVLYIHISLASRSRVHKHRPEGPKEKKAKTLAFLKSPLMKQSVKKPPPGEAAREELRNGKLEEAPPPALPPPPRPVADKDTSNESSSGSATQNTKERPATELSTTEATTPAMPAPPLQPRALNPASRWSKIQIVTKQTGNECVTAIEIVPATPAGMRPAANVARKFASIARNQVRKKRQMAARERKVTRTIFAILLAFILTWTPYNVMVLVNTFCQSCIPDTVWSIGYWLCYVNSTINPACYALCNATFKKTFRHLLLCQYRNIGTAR
Experiment: M4 PAM cAMP assay (GloSensor)
Conditions: HEK293 GloSensor cells expressing hM4; with EC20 acetylcholine and isoproterenol; geometric mean of 2-4 determinations unless footnoted (b: >=5, c: single)
pEC50: −log10 of the molar value.
recorded-endpoint: pEC50

(I) CNc1nc(C)c(C)c2c1CN(C(=O)CC1CN(c3ccnc(OC(F)F)c3)C1)C2 [Example 3]
(II) CNc1nc(C)c(C)c2c1CN(C(=O)C[C@@H]1C[C@H]1c1ccc(F)nc1)C2 (single isomer, unassigned) [Example 16]
(III) CNc1nc(C)c(C)c2c1CN(C(=O)CC1CN(c3ccnc(OC(F)F)c3)C1)C2C (single isomer, unassigned) [Example 49]
(IV) Cc1nc(OC(F)F)c2c(c1C)CN(C(=O)CC1CN(c3cncnc3)C1)C2 [Example 56]
// query Rank descending by pEC50: all 4 compounds from above. Write the labels out in the order the request specifies.
// result II, I, IV, III
(II: 9.08, I: 8.54, IV: 6.82, III: 6.12)
